src = patent US9926282B2

Recorded IC50 by entry
# ASSAYED_SYSTEM: ROCK2 (Homo sapiens (Human), UniProt O75116)
# Sequence (O75116 whole entry, species assumed): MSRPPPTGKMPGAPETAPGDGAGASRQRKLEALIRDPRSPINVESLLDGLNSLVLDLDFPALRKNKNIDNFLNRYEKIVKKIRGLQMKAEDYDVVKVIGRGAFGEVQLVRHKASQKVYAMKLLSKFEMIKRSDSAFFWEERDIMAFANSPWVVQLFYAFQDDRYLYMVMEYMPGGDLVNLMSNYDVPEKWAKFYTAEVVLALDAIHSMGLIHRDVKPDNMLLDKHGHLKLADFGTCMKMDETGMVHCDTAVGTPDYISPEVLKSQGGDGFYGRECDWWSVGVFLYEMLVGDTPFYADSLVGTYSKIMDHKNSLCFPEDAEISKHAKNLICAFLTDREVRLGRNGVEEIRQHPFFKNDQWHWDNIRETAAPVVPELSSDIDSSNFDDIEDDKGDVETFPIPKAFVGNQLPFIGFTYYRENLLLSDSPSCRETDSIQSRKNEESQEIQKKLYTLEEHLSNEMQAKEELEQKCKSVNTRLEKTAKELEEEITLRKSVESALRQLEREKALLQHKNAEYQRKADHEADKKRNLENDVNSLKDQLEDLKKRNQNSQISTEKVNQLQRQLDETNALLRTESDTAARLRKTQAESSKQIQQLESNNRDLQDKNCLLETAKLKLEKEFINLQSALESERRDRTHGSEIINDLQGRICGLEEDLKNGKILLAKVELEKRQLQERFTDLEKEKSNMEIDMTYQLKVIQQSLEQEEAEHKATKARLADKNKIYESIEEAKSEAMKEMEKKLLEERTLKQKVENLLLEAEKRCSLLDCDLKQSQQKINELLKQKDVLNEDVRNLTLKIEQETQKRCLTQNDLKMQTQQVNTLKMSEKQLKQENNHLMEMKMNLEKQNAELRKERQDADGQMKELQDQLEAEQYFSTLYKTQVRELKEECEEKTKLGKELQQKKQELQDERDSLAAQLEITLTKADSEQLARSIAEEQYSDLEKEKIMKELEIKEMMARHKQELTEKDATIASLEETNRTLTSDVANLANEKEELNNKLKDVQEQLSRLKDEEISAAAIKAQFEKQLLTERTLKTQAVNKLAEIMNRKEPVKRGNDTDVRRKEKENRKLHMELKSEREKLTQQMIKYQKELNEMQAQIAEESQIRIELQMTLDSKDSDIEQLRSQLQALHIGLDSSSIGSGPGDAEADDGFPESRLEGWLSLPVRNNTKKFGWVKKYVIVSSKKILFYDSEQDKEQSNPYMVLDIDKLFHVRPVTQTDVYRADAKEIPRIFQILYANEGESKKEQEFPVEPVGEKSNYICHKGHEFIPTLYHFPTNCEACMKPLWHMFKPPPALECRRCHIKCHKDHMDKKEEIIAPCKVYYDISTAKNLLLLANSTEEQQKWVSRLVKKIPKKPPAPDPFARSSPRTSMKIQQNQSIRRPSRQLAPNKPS
# EXPERIMENT: ROCK assay (LABCHIP peptide phosphorylation), ROCK2
# Assay type: biochemical
# PROTOCOL_CONDITIONS: 5 μM ATP, 1.5 μM peptide substrate

Known IC50 results, listed for orientation:
Cn1nc2c(c1C(=O)Nc1ccc(-c3n[nH]c(=O)c4ccccc34)cc1)CCCC2; 0.1 to 100 nM
Cn1nc(C2CC2)cc1C(=O)Nc1ccc(-c2n[nH]c(=O)c3ccccc23)cc1; 0.1 to 100 nM

Prompt: Recorded IC50 for Cc1ccccc1-n1ncc(C(=O)Nc2ccc(-c3n[nH]c(=O)c4ccccc34)cc2)c1C with ROCK2 (Homo sapiens (Human), UniProt O75116), please?
Response: 0.1 to 100 nM

Prompt: And the next one, CC(C)(O)Cn1nc(C(=O)Nc2ccc(-c3n[nH]c(=O)c4ccccc34)c(CO)c2)c2ccccc21 ?
Response: 0.1 to 100 nM

Prompt: Another: CCOc1cc(NC(=O)c2nn(CC3CCOC3)c3ccccc23)ccc1-c1n[nH]c(=O)c2ccccc12 (stereo not shown)
Response: 101 to 1000 nM

Prompt: Moving on to CC(C)c1c(C(=O)Nc2ccc(-c3n[nH]c(=O)c4ccccc34)cc2)nnn1-c1ccccc1
Response: 101 to 1000 nM

Prompt: # iterate: O=C(Nc1ccc(-c2n[nH]c(=O)c3ccccc23)cc1)c1nn(CC2CCCO2)c2ccccc12 (stereo not shown)
Response: 0.1 to 100 nM

* * *

Recorded IC50 for the following compounds
# ASSAYED_SYSTEM: ROCK1 (Homo sapiens (Human))
# Sequence (Q13464 whole entry, species assumed): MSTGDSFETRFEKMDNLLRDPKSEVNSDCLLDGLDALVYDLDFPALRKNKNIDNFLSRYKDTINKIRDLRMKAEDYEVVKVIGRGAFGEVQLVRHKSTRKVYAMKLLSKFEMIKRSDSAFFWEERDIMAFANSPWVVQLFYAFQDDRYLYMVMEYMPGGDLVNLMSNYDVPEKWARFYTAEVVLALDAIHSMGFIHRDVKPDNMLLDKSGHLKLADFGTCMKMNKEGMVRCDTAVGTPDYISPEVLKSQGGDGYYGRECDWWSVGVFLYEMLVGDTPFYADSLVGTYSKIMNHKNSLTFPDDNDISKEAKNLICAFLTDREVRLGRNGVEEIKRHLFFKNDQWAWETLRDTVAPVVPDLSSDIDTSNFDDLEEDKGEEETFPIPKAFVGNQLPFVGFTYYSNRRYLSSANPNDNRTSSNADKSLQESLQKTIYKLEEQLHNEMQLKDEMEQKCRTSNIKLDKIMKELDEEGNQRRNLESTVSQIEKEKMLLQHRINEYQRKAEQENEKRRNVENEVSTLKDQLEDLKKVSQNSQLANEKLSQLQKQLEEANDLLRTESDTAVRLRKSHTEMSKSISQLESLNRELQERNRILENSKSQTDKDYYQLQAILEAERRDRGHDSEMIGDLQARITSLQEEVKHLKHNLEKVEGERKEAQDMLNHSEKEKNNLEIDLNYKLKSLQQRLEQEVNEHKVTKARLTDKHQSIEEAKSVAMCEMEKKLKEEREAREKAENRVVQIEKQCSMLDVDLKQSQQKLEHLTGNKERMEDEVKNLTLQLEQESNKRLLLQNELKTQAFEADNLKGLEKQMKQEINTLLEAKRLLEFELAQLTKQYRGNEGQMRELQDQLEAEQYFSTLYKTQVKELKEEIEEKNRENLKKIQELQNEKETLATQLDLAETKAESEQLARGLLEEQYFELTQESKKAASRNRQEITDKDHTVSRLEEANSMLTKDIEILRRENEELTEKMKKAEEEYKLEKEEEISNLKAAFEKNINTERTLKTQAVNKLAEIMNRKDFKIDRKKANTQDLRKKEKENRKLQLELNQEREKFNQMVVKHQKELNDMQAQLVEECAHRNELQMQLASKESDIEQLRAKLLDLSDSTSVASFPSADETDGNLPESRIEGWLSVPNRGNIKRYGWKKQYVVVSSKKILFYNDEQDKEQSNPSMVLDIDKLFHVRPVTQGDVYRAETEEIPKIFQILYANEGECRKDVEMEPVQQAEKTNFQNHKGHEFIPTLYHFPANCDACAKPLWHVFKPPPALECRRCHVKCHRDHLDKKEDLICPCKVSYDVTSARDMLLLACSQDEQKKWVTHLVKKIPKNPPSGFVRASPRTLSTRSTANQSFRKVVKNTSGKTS
# EXPERIMENT: ROCK assay (LABCHIP peptide phosphorylation), ROCK1
# Assay type: biochemical
# PROTOCOL_CONDITIONS: 5 μM ATP, 1.5 μM peptide substrate; read-out: ROCK1 IC50

In the examples that follow, each entry is paired with its recorded IC50.
CN1CC(Cn2nc(C(=O)Nc3ccc(-c4n[nH]c(=O)c5ccccc45)cc3)c3ccccc32)C1; 0.1 to 100 nM
Cc1cc(C(=O)Nc2ccc(-c3n[nH]c(=O)c4ccccc34)cc2)nn1Cc1ccccc1; 0.1 to 100 nM
CC(=O)N1CCC(C(=O)Nc2ccc(-c3n[nH]c(=O)c4ccccc34)cc2)CC1; 1000 to 50000 nM
O=C(Nc1ccc(-c2n[nH]c(=O)c3ccccc23)cc1)c1ccccc1; 101 to 1000 nM

Prompt: I have this compound here, O=C(Nc1ccc(-c2c[nH]c(=O)c3ccccc23)cc1)c1nc2c(s1)CCCC2 , and I need its recorded IC50.
Response: 0.1 to 100 nM

Prompt: What would you report for COc1ccn2ncc(C(=O)Nc3ccc(-c4n[nH]c(=O)c5ccccc45)cc3)c2c1 ?
Response: 0.1 to 100 nM

Prompt: Again, but for Cc1onc(NC(=O)Cc2ccc(-c3n[nH]c(=O)c4ccccc34)cc2)c1C
Response: 101 to 1000 nM

* * *

# ASSAYED_SYSTEM: ROCK1 (Homo sapiens (Human))
# EXPERIMENT: ROCK assay (LABCHIP peptide phosphorylation), ROCK1
# Format: biochemical
# PROTOCOL_CONDITIONS: 5 μM ATP, 1.5 μM peptide substrate; read-out: ROCK1 IC50
pIC50: −log10 of the molar value.
MEASURED_PARAMETER: pIC50

O=C(Nc1ccc(-c2n[nH]c(=O)c3ccccc23)cc1)c1nn(Cc2ccncc2)c2ccccc12; 7.00 to 10.00

Prompt: Consider the compound CC(C)(O)COc1ccc2c(C(=O)Nc3ccc(-c4n[nH]c(=O)c5ccccc45)cc3)cnn2c1 and give its measured pIC50.
Response: 7.00 to 10.00

Prompt: Now the compound CC(C)Oc1ccc2cc(C(=O)Nc3ccc(-c4n[nH]c(=O)c5ccccc45)cc3)[nH]c2c1
Response: 7.00 to 10.00
